# Target Desc: human PF4 (Homo sapiens, UniProt P02776)
# Construct: PF4 is a 70 amino acid, lysine-rich 7.8 kDa platelet-specific protein; made in house; host or cells: Escherichia coli BL21DE3 pLysS (pT7-7) and/or Drosophila S2 cells
# Sequence (P02776 32-101): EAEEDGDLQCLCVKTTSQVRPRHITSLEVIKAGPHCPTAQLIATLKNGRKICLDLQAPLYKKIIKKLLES
# Assay Text: Inhibition of PF4 tetramer formation (BS3 cross-linking, SDS-PAGE)
# Format: biochemical
# Protocol Conditions: read-out: IC50 of PF4 tetramer formation inhibition
pIC50: −log10 of the molar value.
Measured Quantity: pIC50

[[record]]
molecule = "CC(C)(C)OC(=O)N1CCCC[C@@H]1C(=O)C1C(=O)c2ccc(C(=O)c3ccc4c(c3)C(=O)C(C(=O)[C@H]3CCCCN3C(=O)OC(C)(C)C)C4=O)cc2C1=O (stereo partly drawn)"
target_desc = "human PF4 (Homo sapiens, UniProt P02776)"
readout_value = 5.52

[[record]]
molecule = "CC(=O)NCC(=O)C1C(=O)c2ccc(Oc3ccc4c(c3)C(=O)C(C(=O)CNC(C)=O)C4=O)cc2C1=O (stereo not drawn)"
target_desc = "human PF4 (Homo sapiens, UniProt P02776)"
readout_value = 5.52

[[record]]
molecule = "O=C(O)CCNC(=O)C1C(=O)c2ccc(C(=O)c3ccc4c(c3)C(=O)C(C(=O)NCCC(=O)O)C4=O)cc2C1=O (stereo not drawn)"
target_desc = "human PF4 (Homo sapiens, UniProt P02776)"
readout_value = 5.52

[[record]]
molecule = "CC(=O)C1(C(=O)OC(C)C)C(=O)c2ccc(Oc3ccc4c(c3)C(=O)CC4=O)cc2C1=O (stereo not drawn)"
target_desc = "human PF4 (Homo sapiens, UniProt P02776)"
readout_value = 5.47

[[record]]
molecule = "CC(C)(C)OC(=O)N1CCCC[C@H]1C(=O)C1C(=O)c2ccc(-c3ccc4c(c3)C(=O)C(C(=O)[C@@H]3CCCCN3C(=O)OC(C)(C)C)C4=O)cc2C1=O (stereo partly drawn)"
target_desc = "human PF4 (Homo sapiens, UniProt P02776)"
readout_value = 5.26

[[record]]
molecule = "COCCOCCNC(=O)C1C(=O)c2ccc(Oc3ccc4c(c3)C(=O)C(C(=O)NCCOCCOC)C4=O)cc2C1=O (stereo not drawn)"
target_desc = "human PF4 (Homo sapiens, UniProt P02776)"
readout_value = 5.89

